TEST SUMMARY: yeast display, Sf9 membrane polyspecificity reagent, FACS + sequencing; frameworks hold sequencing errors
EXPERIMENTAL ENDPOINT: polyreactivity (PSR sort gate)

The following sequences have reported results that may help.
PRIMARY SEQUENCE: QVQLVESGGGLVQAGGSLRLSCAASGSTFFRYAMGWYRQAPGKEREFVAAISKRGGSTHYADSVQGRFTLSRDNAKNTVYLQMNSLKPEHTAVYYCAASSFTSSYNYWGQGTQVTVSS
polyreactivity (PSR sort gate): high polyreactivity
//
PRIMARY SEQUENCE: QVQLVESGGGLVQAGRSLRLSCAASGRTFYHYAMGWYRQAPGKERELVAAIDWSTASTYYADSVKGRFTISRDNAKNTVYLQMNSLIQEDTAVYYCATDSAILINFVLYDYWGQGTQVTVSS
polyreactivity (PSR sort gate): low polyreactivity
//
PRIMARY SEQUENCE: QVQLVESGGCLVQAGGILRLSCAASGSTFWIYAMGWYRQAPGKERELVAAITLRSGSTYYADSVKGRYTISRDNAKNTVFLQMNSLKPEDTAVYYCATDSWGVDRPNYNYWGQGTQVTVSS
polyreactivity (PSR sort gate): low polyreactivity
//
PRIMARY SEQUENCE: QLQLEESLVGLVQAGGSHPLSCAATGITFFTYTIGWYRQAPGKERELVARIRWDGGSTYYADSVKGRFTISRDNAKNTVYLQMNSLKPEDTAVYYCAADYPYSTYDYWGQGTQVTVSS
polyreactivity (PSR sort gate): low polyreactivity
//
PRIMARY SEQUENCE: QGQRVESGGGLVQAGGSLRISCAASGRTVGRYVMGWYRQEPGKERELVARIRGSTTSTYYADSVKGRFTISRDNAKNTVYLQMNSLKAEDTAVYYCAASYSPFASSYSYDYWGQGTQVTVSS
polyreactivity (PSR sort gate): high polyreactivity

Item under review: `QVQLVESGGGVVQAGGSLRLSCAASGSIFNRYAMGWYRQAPGKERELVAAISTHTGTTYYADSVKGRFTISRDNAKNTVYLQMNSLKPEDTAVYYCNAATYGGRYYYWGQGTQVTVSS` . Reported polyreactivity (PSR sort gate)?
high polyreactivity

Also, `QVQLVESGGGLVQAGGSLRLSSAASGIIFYNYAMGWDRQAPGKEWEFVAAISWSGGSTNYADSVKGRFTISRDTAKNTVDLQMNSLQPEDTAVYYCAAEYYGWYYGREAYWGQGTQVTVSS` please.
low polyreactivity
